- subjectOfTest: Fructose-bisphosphate aldolase (Mycobacterium tuberculosis (strain ATCC 25618 / H37Rv))
- testMethodNotes: Mtb FBA enzyme inhibitors, primary screen, biochemical, fluorescence, strain H37Rv (AID 588726);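 note: 0% = vehicle and 100% = reference inhibitor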
- testContext: purified M. tuberculosis FBA, fluorescence read-out, at 1 µM, active compounds read high
Hit rate of the full screen: of about 360,000 compounds, about 8,200 (2.3%) were called active. This is one part of a sample in which actives are shown more often than they occur.
observationType: inhibition (%)
Write the value in % as a bare number.

Solved entries:
molecule	reading
CCCCC1N2CC3([N+](=O)[O-])CN1CC([N+](=O)[O-])(C2)C3(C)C (configuration not stated)	2.82
CN(CCC#N)c1ncnc2scc(-c3ccccc3)c12	4.16
CCc1ccc(OCC(O)CN2CCN(CCO)CC2)cc1 (configuration not stated)	-0.21
COc1cc(C2OC(c3cc(OC)c(OC)c(OC)c3)C(C)C2C)cc(OC)c1OC (configuration not stated)	-1.3

**Q:** Quick check: inhibition of COC(=O)c1c(-c2cccs2)csc1NC(=O)CSc1ncnc2sc(C)c(C)c12 ?
**A:** 1.16

**Q:** One more molecule: O=C(CSc1nnc(-c2ccncc2)o1)NCc1ccc(Cl)cc1
**A:** -1.06

**Q:** One more molecule: CS(=O)(=O)N(CC(=O)N1CCCC1)Cc1ccccc1
**A:** 1.15

**Q:** One more molecule: CCOC(=O)CSc1nc2c(c(=O)n(Cc3ccccc3Cl)c(=O)n2C)n1C
**A:** 88

**Q:** One more molecule: O=C(CCNC(=O)c1ccccc1)NN=Cc1ccc(Br)o1
**A:** 0.48

**Q:** One more molecule: CC(=O)NC1=NC(=O)CS1
**A:** 3.59

**Q:** One more molecule: CCCSc1nc2c(c(=O)n(C)c(=O)n2C)n1Cc1ccc(C)cc1
**A:** 1.01

**Q:** One more molecule: Cn1nccc1NS(=O)(=O)c1ccc(F)cc1
**A:** -0.97

* * *

- subjectOfTest: Fructose-bisphosphate aldolase (Mycobacterium tuberculosis (strain ATCC 25618 / H37Rv)) (UniProt P9WQA3)
- Sequence (P9WQA3 whole entry, looked up): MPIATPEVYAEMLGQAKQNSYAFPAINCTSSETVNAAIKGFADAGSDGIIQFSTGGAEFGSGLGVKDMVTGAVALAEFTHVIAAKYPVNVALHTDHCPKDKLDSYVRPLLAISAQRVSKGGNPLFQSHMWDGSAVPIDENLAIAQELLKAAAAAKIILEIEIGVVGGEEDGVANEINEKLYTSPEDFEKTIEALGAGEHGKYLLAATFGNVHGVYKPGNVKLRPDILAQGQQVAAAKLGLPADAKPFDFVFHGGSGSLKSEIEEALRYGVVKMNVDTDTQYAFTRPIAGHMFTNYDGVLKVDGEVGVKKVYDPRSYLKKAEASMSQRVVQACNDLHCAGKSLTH
- testMethodNotes: Mtb FBA enzyme inhibitors, primary screen, biochemical, fluorescence, strain H37Rv (AID 588726);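 note: 0% = vehicle and 100% = reference inhibitor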
- testContext: purified M. tuberculosis FBA, fluorescence read-out, at 1 µM, active compounds read high
Among all 360,000 compounds or so, about 8,200 (2.3%) were called active. Many of the other results were omitted from the sample, so actives are more common in it than they were.
Recorded inhibition by entry
Write the value in % as a bare number.

Solved entries:
compound	observationType	reading
CCCCSc1nnc(-c2ccc(C)cc2)o1	inhibition	3.13
CCCCOc1ccc(-c2nnc(-c3ccco3)o2)cc1	inhibition	46.1
CCc1cc(=O)oc2c(C)c(OCC(=O)NCCN3CCOCC3)ccc12	inhibition	18
COc1cccc(NC(=O)c2cc(S(=O)(=O)N3CCc4ccccc43)cn2C)c1	inhibition	-0.54

**Q:** Quick check: inhibition of N#Cc1ccc(OCc2nnc(-c3ccc([N+](=O)[O-])cc3)o2)cc1 ?
**A:** 0.59

**Q:** One more compound: CCc1cc(=O)oc2c(C)c(OCC(=O)N3CC[C@@]4(O)CCCC[C@H]4C3)ccc12
**A:** 36.8

**Q:** One more compound: O=C(Cn1nnc(-c2ccc3c(c2)OCO3)n1)NCc1ccco1
**A:** 1.83

**Q:** One more compound: Cc1ccccc1Cn1nc(C)c(NC(=O)C(F)(F)F)c1C
**A:** -0.53

**Q:** One more compound: CC1(C(=O)NCC2CCOCC2)Cc2c(-c3cccc(C(N)=O)c3)ccnc2O1 (stereo unspecified)
**A:** -0.46
